Test system: SF-295 CNS
Experiment: NCI-60 one-dose screen, 48 h (100 = growth as untreated, 0 = no growth, -100 = all killed)
Details: 10 µM unless noted
This is part of a sample that, as a whole, favours compounds with a hit. Of some 83,000 tested, about 20% had one in any assay.
Is growth at least 30%? Then True. If not, False.

{"compound": "CN(C)c1ccc(/C=N\\NC(=O)c2ccc3nc(-c4ccc(Cl)cc4)[nH]c3c2)cc1", "category-label": "True"}
{"compound": "COc1ccc(CNc2ccc3nc(NC(=O)CN4CCCCCC4)sc3c2)cc1", "category-label": "True"}
{"compound": "O=C(O)c1cn(C2CC2)c2cc(N3CCN(C(=O)N/N=C/c4cccc5ccccc45)CC3)c(F)cc2c1=O", "category-label": "True"}
{"compound": "Cc1nc2sc(C(=O)Nc3cccc4ccccc34)c(N)c2cc1C(=O)c1ccccc1", "category-label": "False"}
{"compound": "CCN(CC)CCCC(Cc1ccccc1)Nc1c2ccc(Cl)cc2nc2ccc(OC)cc12 (stereo unspecified)", "category-label": "False"}
